- SYSTEM NAME: Heat shock 70 kDa protein 1A (Homo sapiens)
- EXPERIMENT: Hsp70 inhibitors, probe displacement, primary screen, biochemical, fluorescence polarization (AID 583)
- MEASUREMENT CONDITIONS: mP, at 20 µM
The campaign covered roughly 140,000 compounds. About 80 (0.06%) were called active. No stated cut-off is given here; in the data, active means displacement above about 50%; inactive means the rest. This excerpt belongs to a sample that is enriched for actives.
Labels: active, inactive

# MOLECULE, CATEGORY LABEL
data = [
    ("C=CCn1c2ccccc2c2nnc(SCC(=O)Nc3sc4c(c3C#N)CCCC4)nc21", "inactive"),
    ("CCOc1cc(/C=C2/SC(=S)NC2=O)cc(Cl)c1OCc1ccc(Cl)cc1Cl", "inactive"),
    ("O=C(c1ccc(N2CCN(C(=O)c3ccccc3F)CC2)cc1)c1cccc(F)c1", "inactive"),
    ("COc1cc(/C=C2/SC(=S)NC2=O)cc(Cl)c1OCc1ccc(Cl)cc1Cl", "active"),
    ("COc1ccc(Br)cc1/C=C/C(=O)Nc1cccc(NC(=O)c2ccccc2Cl)c1", "inactive"),
    ("O=C(O)c1ccc(-c2ccc(/C=C3\\SC(=S)N(c4ccc([N+](=O)[O-])cc4)C3=O)o2)cc1", "active"),
    ("O=C(CCn1nnc2ccccc2c1=O)NCC1CCC(C(=O)O)CC1 (centres undefined)", "inactive"),
    ("CCOc1ccc(C(=O)Nc2ccc(NC(=O)c3ccccc3Cl)cc2)cc1Br", "inactive"),
    ("Cc1ccc(NC(=O)c2ccccc2O)cc1", "inactive"),
    ("O=C(COc1ccc([N+](=O)[O-])cc1)Nc1cccc(Cl)c1Cl", "inactive"),
    ("O=C1/C(=C\\c2ccc(-c3ccc([N+](=O)[O-])cc3)o2)SC(=S)N1c1ccc(O)cc1", "inactive"),
    ("Brc1ccc(/C=N/c2ncn[nH]2)cc1", "inactive"),
    ("CC(=O)Nc1ccccc1NC(=O)COc1ccc(Cl)cc1C", "inactive"),
    ("Cc1ccc(-c2cc(C(=O)N/N=C/c3ccc([N+](=O)[O-])cc3)[nH]n2)cc1", "inactive"),
    ("COc1ccccc1C=C1C(=O)NC(=S)N(c2ccccc2F)C1=O", "inactive"),
    ("COc1ccc(OC)c(C=NN2CCN(Cc3ccccc3Cl)CC2)c1", "inactive"),
    ("Cc1ccc(NC2=C(Cl)C(=O)N(c3ccccc3Cl)C2=O)cc1C", "inactive"),
    ("CC1(C)OC(=O)C(=Cc2ccc(I)o2)C(=O)O1", "active"),
    ("O=C(O)c1cccc(N2C(=O)c3ccc(Br)cc3C2=O)c1", "inactive"),
    ("O=C(O)c1cccc(N2C(=O)CCC2=O)c1", "inactive"),
    ("CC(C)c1c(O)nc(SCC(=O)Nc2ccc3c(c2)CCC3)[nH]c1=O", "inactive"),
    ("COc1cccc(C(=O)CSc2nnc(COc3cccc4cccnc34)o2)c1", "inactive"),
    ("Cc1ccc(NC(=O)CSc2nnc(-c3ccccc3Br)o2)cc1C", "inactive"),
    ("COc1ccccc1N1C(=O)C(=Cc2cccn2C)C(=O)NC1=S", "active"),
    ("COc1ccc(/C=C/C(=O)Nc2nc(C)c(C)s2)cc1OC", "inactive"),
    ("COc1ccc(N2C(=O)NC(=O)/C(=C\\c3cccc(OC)c3OC)C2=O)cc1", "inactive"),
    ("O=C1N/C(=N/N=C/c2ccccc2)SC1Cc1ccccc1Cl (centres undefined)", "inactive"),
    ("N#Cc1c(NC(=O)CCN2C(=O)c3ccccc3C2=O)sc2c1CCCC2", "active"),
    ("O=C(c1ccc(N2CCN(C(=O)c3ccccc3)CC2)cc1)c1cccc(F)c1", "inactive"),
    ("Cc1ccc(NC(=O)c2ccccc2Br)cc1", "inactive"),
    ("CC(=O)NS(=O)(=O)c1ccc(NC(=O)c2ccc([N+](=O)[O-])cc2)cc1", "inactive"),
    ("O=C(N/N=C/c1cccc([N+](=O)[O-])c1)c1cc(-c2ccc(Cl)cc2)n[nH]1", "inactive"),
    ("Cn1cccc1/C=C1/C(=O)NC(=S)N(c2cccc(Cl)c2)C1=O", "inactive"),
    ("Cc1cc(C)c(C(=O)CSc2n[nH]c(=O)n2C2CC2)cc1C", "inactive"),
    ("Cc1c(C(=O)N2CCc3ccccc3C2)sc2nc(-c3ccccc3)cn12", "inactive"),
    ("O=C(O)c1cccc(N2C(=O)c3ccc4c5c(ccc(c35)C2=O)CC4)c1", "active"),
    ("CC1=C(C(=O)Nc2ccccn2)C(c2cccnc2)n2nnnc2N1 (centres undefined)", "inactive"),
    ("O=C(N=Nc1c(O)n(Cc2ccccc2)c2ccccc12)c1ccccc1O", "inactive"),
    ("O=C1c2ccccc2C(=O)N1/N=C/c1ccc(O)cc1O", "inactive"),
    ("COc1cc(/C=C2/SC(=S)NC2=O)cc(Cl)c1OCc1cccc2ccccc12", "active"),
    ("COC(=O)COc1ccc(/C=C2\\C(=O)NC(=S)N(c3ccc(F)cc3)C2=O)cc1OC", "inactive"),
    ("Nc1cc(S(=O)(=O)O)cc2cccc(S(=O)(=O)O)c12", "inactive"),
    ("O=C(O)CCN1C(=O)/C(=C/c2ccc(-c3ccc([N+](=O)[O-])cc3)o2)SC1=S", "inactive"),
    ("CCCOc1c(Cl)cc(/C=C2/SC(=S)NC2=O)cc1OC", "inactive"),
]
